Each recorded value in this set is attributed to patent US12195482B1.

Please go through the items and note down their pIC50.
- STUDY TARGET: recombinant human TYRO3 (Homo sapiens, UniProt Q06418)
- Construct: purchased Invitrogen
- Sequence (Q06418 41-890): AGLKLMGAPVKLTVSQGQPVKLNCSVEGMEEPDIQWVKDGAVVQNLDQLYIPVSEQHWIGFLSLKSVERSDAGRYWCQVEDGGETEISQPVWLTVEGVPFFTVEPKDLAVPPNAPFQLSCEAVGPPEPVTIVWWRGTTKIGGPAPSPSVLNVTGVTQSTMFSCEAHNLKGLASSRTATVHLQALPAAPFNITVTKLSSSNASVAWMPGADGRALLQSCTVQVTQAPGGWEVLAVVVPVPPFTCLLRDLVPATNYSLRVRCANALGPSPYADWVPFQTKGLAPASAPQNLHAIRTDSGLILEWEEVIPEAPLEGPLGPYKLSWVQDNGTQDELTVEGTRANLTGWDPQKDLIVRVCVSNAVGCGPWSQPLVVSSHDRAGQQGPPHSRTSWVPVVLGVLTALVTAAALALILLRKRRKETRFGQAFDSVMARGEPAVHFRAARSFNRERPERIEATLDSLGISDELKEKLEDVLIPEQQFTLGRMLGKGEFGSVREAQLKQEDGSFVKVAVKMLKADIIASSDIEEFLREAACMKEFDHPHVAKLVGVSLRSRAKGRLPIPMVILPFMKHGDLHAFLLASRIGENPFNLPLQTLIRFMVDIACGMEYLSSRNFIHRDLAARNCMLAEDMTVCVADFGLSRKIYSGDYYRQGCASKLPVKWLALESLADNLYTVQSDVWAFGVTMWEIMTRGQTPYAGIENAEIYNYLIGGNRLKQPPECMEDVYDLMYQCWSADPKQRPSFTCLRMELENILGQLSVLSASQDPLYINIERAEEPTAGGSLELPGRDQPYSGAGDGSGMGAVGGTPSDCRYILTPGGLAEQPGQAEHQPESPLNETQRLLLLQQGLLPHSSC
- PROTOCOL NOTES: Biochemical potency, HTRF KinEASE-TK kinase assay
- EXPERIMENTAL SETUP: 1 nM TYRO3, 700 μM ATP
pIC50: −log10 of the molar value.

Report pIC50 on recombinant human TYRO3 (Homo sapiens, UniProt Q06418) for this entry: CC(C)(O)c1ccccc1-c1ccc(-c2n[nH]c3ncc(-c4ccc5c(c4)CC[C@@H](N4C6COCC4C6)CC5)cc23)cn1
6.00 to 7.00

Report pIC50 on recombinant human TYRO3 (Homo sapiens, UniProt Q06418) for this entry: Cc1cc(-c2ncccc2C)ccc1-c1n[nH]c2ncc(-c3ccc4c(c3)CC[C@@H](N3C5COCC3C5)CC4)cc12
> 7.00

Report pIC50 on recombinant human TYRO3 (Homo sapiens, UniProt Q06418) for this entry: Cc1ccc(-c2ccc(-c3n[nH]c4ncc(-c5ccc6c(c5)CC[C@@H](N5C7COCC5C7)CC6)cc34)cc2)nc1
< 6.00

Report pIC50 on recombinant human TYRO3 (Homo sapiens, UniProt Q06418) for this entry: CC(C)(O)c1ccccc1-c1ccc(-c2c[nH]c3ncc(-c4ccc5c(c4)CC[C@@H](N4C6COCC4C6)CC5)cc23)cn1
6.00 to 7.00

====

- STUDY TARGET: recombinant human MER (Homo sapiens, UniProt Q12866)
- Sequence (Q12866 21-999): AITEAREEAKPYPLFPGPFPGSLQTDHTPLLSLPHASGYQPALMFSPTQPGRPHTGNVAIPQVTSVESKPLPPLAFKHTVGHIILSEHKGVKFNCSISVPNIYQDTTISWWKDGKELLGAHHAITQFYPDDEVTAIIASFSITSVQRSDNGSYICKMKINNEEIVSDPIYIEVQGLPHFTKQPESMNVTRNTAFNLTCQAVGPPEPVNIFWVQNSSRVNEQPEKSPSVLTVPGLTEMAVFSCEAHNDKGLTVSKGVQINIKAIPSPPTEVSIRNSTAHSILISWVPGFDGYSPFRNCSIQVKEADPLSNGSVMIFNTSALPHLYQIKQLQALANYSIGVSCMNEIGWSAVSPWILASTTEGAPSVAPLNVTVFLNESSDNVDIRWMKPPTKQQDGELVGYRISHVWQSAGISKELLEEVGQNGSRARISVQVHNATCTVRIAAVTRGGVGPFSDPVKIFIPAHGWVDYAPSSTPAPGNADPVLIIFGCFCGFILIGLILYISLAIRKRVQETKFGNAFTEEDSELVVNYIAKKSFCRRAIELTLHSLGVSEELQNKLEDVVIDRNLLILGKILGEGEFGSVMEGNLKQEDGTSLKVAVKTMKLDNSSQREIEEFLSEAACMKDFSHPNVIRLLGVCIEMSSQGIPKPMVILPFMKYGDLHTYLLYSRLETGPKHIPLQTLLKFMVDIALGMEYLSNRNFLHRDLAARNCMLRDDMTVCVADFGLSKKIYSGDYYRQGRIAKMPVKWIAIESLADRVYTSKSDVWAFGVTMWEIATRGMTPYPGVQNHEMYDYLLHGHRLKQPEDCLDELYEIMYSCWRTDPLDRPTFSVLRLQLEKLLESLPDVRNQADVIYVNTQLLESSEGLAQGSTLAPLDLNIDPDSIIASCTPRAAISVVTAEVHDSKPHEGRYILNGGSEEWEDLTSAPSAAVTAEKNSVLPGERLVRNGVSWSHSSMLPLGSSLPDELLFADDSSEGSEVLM
- PROTOCOL NOTES: Biochemical potency, HTRF KinEASE-TK kinase assay
- EXPERIMENTAL SETUP: 1 nM MER, 700 μM ATP
MEASUREMENT LABEL: IC50

Report IC50 on recombinant human MER (Homo sapiens, UniProt Q12866) for this entry: Cc1cccnc1-c1ccc(-c2n[nH]c3ncc(-c4ccc5c(c4)CC[C@@H](N4C[C@@H]6C[C@H]4CO6)CC5)cc23)cc1
< 100 nM

Report IC50 on recombinant human MER (Homo sapiens, UniProt Q12866) for this entry: CN(C)C(=O)c1ccccc1-c1ccc(-c2c[nH]c3ncc(-c4ccc5c(c4)CC[C@@H](N4C6COCC4C6)CC5)cc23)cc1
100 to 1000 nM

Report IC50 on recombinant human MER (Homo sapiens, UniProt Q12866) for this entry: c1cnc(-c2ccc(-c3n[nH]c4ncc(-c5ccc6c(c5)CC[C@@H](N5C7COCC5C7)CC6)cc34)cc2)c(O[C@@H]2CCOC2)c1
100 to 1000 nM

Report IC50 on recombinant human MER (Homo sapiens, UniProt Q12866) for this entry: Cc1ccnnc1-c1ccc(-c2c[nH]c3ncc(-c4ccc5c(c4)CC[C@@H](N4C6COCC4C6)CC5)cc23)cc1
< 100 nM

Report IC50 on recombinant human MER (Homo sapiens, UniProt Q12866) for this entry: Cc1cc(F)cnc1-c1ccc(-c2n[nH]c3ncc(-c4ccc5c(c4)CC[C@@H](N4C6COCC4C6)CC5)cc23)cc1
100 to 1000 nM

Report IC50 on recombinant human MER (Homo sapiens, UniProt Q12866) for this entry: COc1cccc(-c2ccc(-c3n[nH]c4ncc(-c5ccc6c(c5)CC[C@@H](N5C7COCC5C7)CC6)cc34)cc2)n1
> 1000 nM
